Data origin: the supplement of paper PMC6555819

Tested on: LXRa homodimer (NR concentration 270 nM)
Experiment: PBM binding z-score (relative to random genomic background probes); higher = stronger binding; sequences stand for … in GC…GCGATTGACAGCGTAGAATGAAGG
Rule: PBM binding z-score under 0.6 gives No, otherwise Yes.

Worked examples follow.
polymer.sequence | system.name | assigned.class
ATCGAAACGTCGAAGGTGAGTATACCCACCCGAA | LXRa homodimer (NR concentration 270 nM) | No
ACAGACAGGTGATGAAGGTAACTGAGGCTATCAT | LXRa homodimer (NR concentration 270 nM) | No
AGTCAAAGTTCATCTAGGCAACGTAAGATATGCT | LXRa homodimer (NR concentration 270 nM) | Yes

input: # check: PBM binding z-score of `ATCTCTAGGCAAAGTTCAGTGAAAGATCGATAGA` is greater than or equal to 0.6
output: Yes

input: `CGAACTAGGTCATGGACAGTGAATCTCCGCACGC` , same question.
output: No

input: And for `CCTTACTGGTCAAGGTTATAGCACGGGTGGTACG` ?
output: No

input: Another sequence: `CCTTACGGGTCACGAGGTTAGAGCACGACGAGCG`
output: No

input: Here is the next sequence: `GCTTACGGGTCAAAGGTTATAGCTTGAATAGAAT`
output: No

input: Please do the same for `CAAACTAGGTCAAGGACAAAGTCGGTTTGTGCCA` as well.
output: No

input: Now give it for `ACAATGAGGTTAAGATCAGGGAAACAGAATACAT` too.
output: No

input: Now the sequence `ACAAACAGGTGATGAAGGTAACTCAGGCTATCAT`
output: No

====

In this section, each of the sequences is paired with its reported PBM binding z-score.
Tested on: PPARg homodimer (NR concentration 180 nM)
Assay: PBM binding z-score (relative to random genomic background probes); higher = stronger binding; sequences stand for … in GC…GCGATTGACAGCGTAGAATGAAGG
Reply: number alone, nothing else.

Here are 3 sequences together with their reported answers.
polymer.sequence | PBM binding z-score
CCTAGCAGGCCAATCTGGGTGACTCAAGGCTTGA | -0.0827
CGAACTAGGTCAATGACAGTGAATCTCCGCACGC | 1.11
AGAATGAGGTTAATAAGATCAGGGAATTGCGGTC | 1.23

input: Recorded PBM binding z-score for `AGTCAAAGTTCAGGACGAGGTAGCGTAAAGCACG` , please?
output: 1.46

input: Check `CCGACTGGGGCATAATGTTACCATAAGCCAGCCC` too.
output: 0.105

input: Same read-out for `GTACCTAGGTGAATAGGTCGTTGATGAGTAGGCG` ?
output: 0.221

====

Catalogue of PBM binding z-score readings, one per entry.
Test system: PPARg DBDmut IVT, anti-PPARg (DBD mutation: PPARg1 K132A/R137A, NR concentration 270 nM)
Experiment: PBM binding z-score (relative to random genomic background probes); higher = stronger binding; sequences stand for … in GC…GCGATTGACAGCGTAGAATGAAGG
Write the value as a bare number.

# example entries with known answers
polymer.sequence | PBM binding z-score
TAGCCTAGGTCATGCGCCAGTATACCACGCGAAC | -0.0835
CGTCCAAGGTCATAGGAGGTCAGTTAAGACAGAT | 0.526
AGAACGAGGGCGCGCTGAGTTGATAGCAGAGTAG | -0.835

Alright, here's another sequence for you.
input: Name the reported PBM binding z-score value associated with the sequence `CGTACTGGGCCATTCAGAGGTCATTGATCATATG`
output: 0.367

====

System: RARb homodimer (NR concentration 270 nM)
Assay: PBM binding z-score (relative to random genomic background probes); higher = stronger binding; sequences stand for … in GC…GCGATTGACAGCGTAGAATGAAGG
Grouping rule (PBM binding z-score): 1 = under 0.8, 2 = from 0.8 up to 3, 3 = 3 and over

input: Kindly state the category for this sequence: `CAAACTAGGTCACCGGAAGGTGAAAGTCCGCATG`
output: 3

input: Same read-out for `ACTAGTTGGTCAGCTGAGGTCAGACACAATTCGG` ?
output: 3

input: Also check `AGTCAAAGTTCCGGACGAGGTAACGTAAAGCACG`
output: 1

input: `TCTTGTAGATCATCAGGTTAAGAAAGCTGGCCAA` ?
output: 1

input: What do you have for `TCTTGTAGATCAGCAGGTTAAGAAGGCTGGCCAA` ?
output: 1

input: Next entry: `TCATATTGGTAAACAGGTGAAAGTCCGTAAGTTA`
output: 2

input: Queued: `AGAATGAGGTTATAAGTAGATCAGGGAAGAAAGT`
output: 2

input: Also, `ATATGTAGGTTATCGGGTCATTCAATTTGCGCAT` please.
output: 3

input: Now try `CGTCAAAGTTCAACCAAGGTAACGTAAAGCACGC` .
output: 3

====

System: RARb homodimer (NR concentration 270 nM)
Test: PBM binding z-score (relative to random genomic background probes); higher = stronger binding; sequences stand for … in GC…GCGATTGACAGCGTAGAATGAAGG
Returns true if the recorded PBM binding z-score is greater than or equal to 4, and false otherwise.

Some solved entries appear below for comparison.
polymer.sequence | assigned.class
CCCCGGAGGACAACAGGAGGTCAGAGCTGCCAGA | false
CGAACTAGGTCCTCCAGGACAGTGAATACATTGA | false
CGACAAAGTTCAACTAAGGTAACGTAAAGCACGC | true
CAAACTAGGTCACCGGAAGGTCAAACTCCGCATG | true

Lab note: next sequence to report on.
input: Reported PBM binding z-score reaches at least 4 for `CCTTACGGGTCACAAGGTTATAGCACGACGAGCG` ?
output: false

====

System: RXRa homodimer (NR concentration 180 nM)
Assay: PBM binding z-score (relative to random genomic background probes); higher = stronger binding; sequences stand for … in GC…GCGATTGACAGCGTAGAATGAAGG
# Lookup of reported PBM binding z-score keyed by entry
The answer should be a number; do not append a unit.

Here's what some known entries look like.
polymer.sequence | PBM binding z-score
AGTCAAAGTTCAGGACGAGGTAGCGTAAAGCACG | 2.93
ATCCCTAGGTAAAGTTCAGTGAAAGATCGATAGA | 1.16
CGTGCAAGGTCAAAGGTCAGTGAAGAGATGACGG | 10.3
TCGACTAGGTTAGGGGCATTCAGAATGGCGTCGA | 0.798

input: Form field: reported PBM binding z-score of `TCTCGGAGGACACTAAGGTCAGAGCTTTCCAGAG`
output: 2.26

input: What about this sequence? `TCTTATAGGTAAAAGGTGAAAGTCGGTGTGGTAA`
output: 3.2

input: Here is the next sequence: `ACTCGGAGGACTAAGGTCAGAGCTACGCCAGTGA`
output: 2.34

input: Try this sequence too: `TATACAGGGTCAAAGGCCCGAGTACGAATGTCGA`
output: 5.91

input: Would you kindly repeat that for `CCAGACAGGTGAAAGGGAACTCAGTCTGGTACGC` ?
output: 0.59

input: Further, for `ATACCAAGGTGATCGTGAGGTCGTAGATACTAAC` ?
output: 1.76

input: Cool, now `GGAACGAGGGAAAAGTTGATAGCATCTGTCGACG`
output: -0.0103

input: Param item: `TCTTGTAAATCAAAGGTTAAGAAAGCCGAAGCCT`
output: 2.24

input: # repeat for `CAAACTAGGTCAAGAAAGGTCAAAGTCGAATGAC`
output: 7.67

input: Now this one: `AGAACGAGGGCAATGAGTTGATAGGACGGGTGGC`
output: 0.869

input: What about this sequence? `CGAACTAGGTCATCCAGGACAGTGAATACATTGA`
output: 2.79

====

Tested on: THRa:RXRa (NR concentration 90 nM, RXRa partner concentration 90 nM)
Test: PBM binding z-score (relative to random genomic background probes); higher = stronger binding; sequences stand for … in GC…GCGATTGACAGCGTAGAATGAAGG
List of PBM binding z-score values.
Number only, please.

polymer.sequence | reported.value
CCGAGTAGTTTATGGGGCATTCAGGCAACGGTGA | 0.238
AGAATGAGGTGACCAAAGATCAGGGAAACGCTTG | 2.53
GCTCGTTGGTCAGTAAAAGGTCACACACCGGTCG | 3.91
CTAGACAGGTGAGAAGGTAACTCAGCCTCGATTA | 0.0525
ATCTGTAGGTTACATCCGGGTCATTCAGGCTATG | 3.81

input: Fill in the blank: the reported PBM binding z-score of `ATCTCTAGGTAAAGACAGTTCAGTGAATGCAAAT` is ____.
output: 1.05

input: Also `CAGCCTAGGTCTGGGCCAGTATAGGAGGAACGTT` , if possible.
output: -0.77

input: Another sequence to look at: `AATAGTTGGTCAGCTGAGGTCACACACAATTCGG`
output: 4.94

input: Lookup `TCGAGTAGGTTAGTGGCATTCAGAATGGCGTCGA`
output: -0.441

input: And then `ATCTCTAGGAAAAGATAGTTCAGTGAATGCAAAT` , what is it?
output: 0.206
